B1: FBXO39 (parent)
chain: RVFKARIYTNRYETNEEDKTLQEI

Variants of: B1
Assay: protein stability index of a GFP-peptide fusion (GPS, HEK-293T) (PSI 1-6); higher = more stable;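 further: lentivirally expressed fusions sorted by FACS into six bins by GFP to DsRed ratio, PSI derived from sequencing read proportions per bin multiplied by bin number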
Details: c terminus: a fixed tail appended
MEASURED PROPERTY: protein stability index

>>> measured_value("RVFKARIYTNRYETNEEDKWLQEI [T20W]")
2.49
>>> measured_value("RVFKARIYTNRYEFNEEDKTLQEI [T14F]")
2.52
>>> measured_value("RVFKARIYTHRYETNEEDKTLQEI [N10H]")
2.82
>>> measured_value("RVFKARIYTNRYETNHEDKTLQEI [E16H]")
2.58
>>> measured_value("RVFKARIYTNRYFTNEEDKTLQEI [E13F]")
2.07
>>> measured_value("RVFKARIYTNRYETNESDKTLQEI [E17S]")
2.1
>>> measured_value("RVFKARIYTNRYETNEEDKTLQET [I24T]")
2.75
>>> measured_value("RVFKARIYTNRYETNNEDKTLQEI [E16N]")
1.74
>>> measured_value("RVFKARIYVNRYETNEEDKTLQEI [T9V]")
2.32
>>> measured_value("RVFKARIYTNRYTTNEEDKTLQEI [E13T]")
2.15
>>> measured_value("RVFKARIYTNRYNTNEEDKTLQEI [E13N]")
2
>>> measured_value("RVFKACIYTNRYETNEEDKTLQEI [R6C]")
2.77
>>> measured_value("RVFKARIYTNRYETNECDKTLQEI [E17C]")
2.03
>>> measured_value("RVFKARIYTCRYETNEEDKTLQEI [N10C]")
2.29
>>> measured_value("IVFKARIYTNRYETNEEDKTLQEI [R1I]")
3.15
>>> measured_value("RVFKARIYTNRYETNEHDKTLQEI [E17H]")
2.02
>>> measured_value("RVFKARIYTNRYQTNEEDKTLQEI [E13Q]")
2.98
>>> measured_value("RVFKKRIYTNRYETNEEDKTLQEI [A5K]")
2.69
>>> measured_value("RVFKARIYTNRYETNEEDKTYQEI [L21Y]")
1.99
>>> measured_value("RVFKMRIYTNRYETNEEDKTLQEI [A5M]")
3.02
>>> measured_value("RVFKAVIYTNRYETNEEDKTLQEI [R6V]")
2.21
>>> measured_value("RVFKATIYTNRYETNEEDKTLQEI [R6T]")
3.79
